Values were extracted from PubChem BioAssay (Tox21).

target: Luciferin 4-monooxygenase (Photinus pyralis) (UniProt P08659); test: qHTS assay to identify small molecule inhibitors of firefly luciferase (AID 1224835); further: nearly all actives have a fitted effect of over 25% in size; conditions: purified P. pyralis luciferase, luminescence inhibition; series mostly up to 115 µM
Sequence (P08659 whole entry, looked up): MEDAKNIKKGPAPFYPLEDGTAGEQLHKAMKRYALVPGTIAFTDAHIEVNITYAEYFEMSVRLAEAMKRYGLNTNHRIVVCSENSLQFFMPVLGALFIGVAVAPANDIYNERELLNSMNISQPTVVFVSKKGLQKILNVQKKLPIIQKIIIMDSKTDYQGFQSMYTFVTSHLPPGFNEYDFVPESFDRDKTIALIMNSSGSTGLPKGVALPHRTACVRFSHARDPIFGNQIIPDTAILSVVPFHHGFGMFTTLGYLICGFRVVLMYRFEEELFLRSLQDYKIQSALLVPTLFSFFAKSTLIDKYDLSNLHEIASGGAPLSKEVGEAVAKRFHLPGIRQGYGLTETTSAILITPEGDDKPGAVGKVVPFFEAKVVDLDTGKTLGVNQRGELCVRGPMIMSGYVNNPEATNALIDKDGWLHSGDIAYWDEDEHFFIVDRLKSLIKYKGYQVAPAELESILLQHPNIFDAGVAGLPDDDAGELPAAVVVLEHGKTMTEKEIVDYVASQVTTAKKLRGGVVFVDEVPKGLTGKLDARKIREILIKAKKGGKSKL
Records with an inconclusive call do not appear. Active and inactive are the calls of the source. The call rests on the fitted dose curve; in most records, active means well fitted inhibition curve with a large enough effect in the repeat runs; inconclusive means weak or mixed curves; inactive means flat fitted curve, though single readings scatter.
Use one of these outcomes when replying: 1 (yes) (active), 0 (no) (inactive)

# example entries with known answers
- compound: "CN1C[C@H](CNC(=O)OCc2ccccc2)C[C@@H]2c3cccc4c3c(cn4C)C[C@H]21"
  class-label: "0 (no)"
- compound: "O=[N+]([O-])c1cc(C(F)(F)F)cc([N+](=O)[O-])c1Cl"
  class-label: "0 (no)"
- compound: "N#CCc1ccccc1"
  class-label: "0 (no)"
- compound: "O=Cc1ccc2c(c1)OCO2"
  class-label: "0 (no)"

Hi team, can someone confirm the assay call for `COP(=S)(OC)Oc1ccc([N+](=O)[O-])cc1Cl` ? 1 (yes)

Hi team, can someone confirm the assay call for `COc1nn(C(=O)NS(=O)(=O)c2ccccc2OC(F)(F)F)c(=O)n1C` ? 0 (no)

Hi team, can someone confirm the assay call for `CCC(Br)(CC)C(=O)NC(N)=O` ? 0 (no)

Hi team, can someone confirm the assay call for `[CH3][Sn]([CH3])([Cl])[Cl]` ? 0 (no)

Hi team, can someone confirm the assay call for `COC(N)=O` ? 0 (no)

Hi team, can someone confirm the assay call for `COC(=O)C(Cl)C(=O)OC` ? 0 (no)

Hi team, can someone confirm the assay call for `ClP(Cl)(Cl)(Cl)Cl` ? 1 (yes)

Hi team, can someone confirm the assay call for `CC(c1ccc(O)cc1)(c1ccc(O)cc1)c1ccc(O)cc1` ? 0 (no)

Hi team, can someone confirm the assay call for `CCOc1nc(F)cc2nc(S(=O)(=O)Nc3c(Cl)cccc3Cl)nn12` ? 0 (no)

Hi team, can someone confirm the assay call for `CC(C)O.CC(C)O.OCCN(CCO)CCO.OCCN(CCO)CCO.[Ti]` ? 0 (no)

====

assay: qHTS assay to identify small molecule antagonists of the progesterone receptor (PR) signaling pathway - cell viability counter screen (AID 1346798); conditions: PR-UAS-bla HEK293T viability, CellTiter-Glo luminescence, 16 h; series mostly up to 92.4 µM; further: nearly all actives have a fitted effect of over 50% in size
Records with an inconclusive call do not appear. Activity calls are given as the source filed them. Calls come from the whole dose curve; as a rule, active = well fitted cell-killing curve with a large enough effect in the repeat runs; inconclusive = weak or mixed curves, or effect the other way; inactive = no such curve, though single readings can be large or run the other way.
Use one of these outcomes when replying: active, inactive

# example entries with known answers
- compound: "CCBr"
  class-label: "inactive"
- compound: "CCCN(CCC)c1c([N+](=O)[O-])cc(S(C)(=O)=O)cc1[N+](=O)[O-]"
  class-label: "inactive"
- compound: "CCOP(=O)(OCC)Oc1ccc([N+](=O)[O-])cc1"
  class-label: "inactive"
- compound: "CC(C)(Cl)[N+](=O)[O-]"
  class-label: "inactive"
- compound: "CC1(C)[C@H](C=C(Cl)Cl)[C@@H]1C(=O)O[C@@H](C#N)c1cccc(Oc2ccccc2)c1"
  class-label: "inactive"
- compound: "COc1c(C(C)(C)C)cc([N+](=O)[O-])c(C)c1[N+](=O)[O-]"
  class-label: "inactive"
- compound: "O=C(NC(=O)c1c(F)cccc1F)Nc1cc(Cl)c(Oc2ncc(C(F)(F)F)cc2Cl)c(Cl)c1"
  class-label: "inactive"
- compound: "O=C1C(Cl)C(CCl)CN1c1cccc(C(F)(F)F)c1 (configuration not stated)"
  class-label: "active"

Hi team, can someone confirm the assay call for `O=C(NCc1cccnc1)Nc1ccc([N+](=O)[O-])cc1` ? active

Hi team, can someone confirm the assay call for `O=C(C(Cl)(Cl)Cl)C(Cl)(Cl)Cl` ? inactive

Hi team, can someone confirm the assay call for `O=Cc1ccc2c(c1)OCO2` ? inactive

Hi team, can someone confirm the assay call for `CCO[C@H]1O[C@@H]2OC3(C)CC[C@H]4[C@H](C)CC[C@@H]([C@H]1C)[C@@]24OO3` ? inactive

====

assay: qHTS assay to identify small molecule antagonists of the sonic hedgehog signaling (Shh) pathway - cell viability counter screen (AID 1259367); conditions: NIH/3T3 Gli1-Luc viability, CellTiter-Fluor, 24 h; series mostly up to 92.4 µM; further: nearly all actives have a fitted effect of over 55% in size
Records with an inconclusive call do not appear. The source made the active and inactive calls. Calls come from the whole dose curve; as a rule, active = well fitted cell-killing curve with a large enough effect in the repeat runs; inconclusive = weak or mixed curves, or effect the other way; inactive = no such curve, though single readings can be large or run the other way.
Use one of these outcomes when replying: active, inactive

# example entries with known answers
- compound: "N#CCC#N"
  class-label: "inactive"
- compound: "CCCN(CCC)c1c([N+](=O)[O-])cc(S(C)(=O)=O)cc1[N+](=O)[O-]"
  class-label: "inactive"
- compound: "CC(C)(C)c1cc([N+](=O)[O-])cc([N+](=O)[O-])c1O"
  class-label: "active"

Hi team, can someone confirm the assay call for `CCOP(=S)(OCC)Oc1cc(Cl)c(Br)cc1Cl` ? inactive

Hi team, can someone confirm the assay call for `C/C=C/C=O` ? inactive

Hi team, can someone confirm the assay call for `CC1(C)[C@H](C=C(Cl)Cl)[C@@H]1C(=O)O[C@@H](C#N)c1cccc(Oc2ccccc2)c1` ? inactive

Hi team, can someone confirm the assay call for `CCCN(CC1CC1)c1c([N+](=O)[O-])cc(C(F)(F)F)cc1[N+](=O)[O-]` ? inactive

Hi team, can someone confirm the assay call for CC(=O)c1cc2c(cc1C)C(C)(C)C(C)CC2(C)C (configuration not stated) ? inactive

Hi team, can someone confirm the assay call for ClCC(Br)CBr (configuration not stated) ? inactive

Hi team, can someone confirm the assay call for `CCc1ccc(C(=O)NN(C(=O)c2cc(C)cc(C)c2)C(C)(C)C)cc1` ? active

Hi team, can someone confirm the assay call for `CC(C)N(C(=O)COc1nnc(C(F)(F)F)s1)c1ccc(F)cc1` ? inactive

Hi team, can someone confirm the assay call for `CC(=O)C(C)(C)C` ? inactive

====

assay: qHTS assay to identify small molecule agonists of the vitamin D receptor (VDR) signaling pathway - cell viability counter screen (AID 743224); details: VDR-bla HEK293T viability, CellTiter-Glo luminescence, 16 h; series mostly up to 62.6 µM; further: nearly all actives have a fitted effect of over 50% in size
Records with an inconclusive call do not appear. Activity calls are given as the source filed them. Calls come from the whole dose curve; as a rule, active = well fitted cell-killing curve with a large enough effect in the repeat runs; inconclusive = weak or mixed curves, or effect the other way; inactive = no such curve, though single readings can be large or run the other way.
Use one of these outcomes when replying: active, inactive

- compound: "C[C@H]1CNCCc2ccc(Cl)cc21"
  class-label: "inactive"
- compound: "CCN(C)N=O"
  class-label: "inactive"
- compound: "COc1ccc(-c2ccccc2)cc1NNC(=O)OC(C)C"
  class-label: "active"
- compound: "CC(=O)NC1CCSC1=O (centres undefined)"
  class-label: "inactive"
- compound: "Cn1cc[n+](C)c1 (tested in a mixture with another compound)"
  class-label: "inactive"

Hi team, can someone confirm the assay call for `ClCc1cccc(Cl)c1` ? inactive

Hi team, can someone confirm the assay call for `C=CC[C@]1(O)CC[C@H]2[C@@H]3CCC4=CC(=O)CCC4=C3C=C[C@@]21C` ? inactive

Hi team, can someone confirm the assay call for CC(Cl)C(C)Cl (centres undefined) ? inactive

Hi team, can someone confirm the assay call for `CC(=O)CCC(C)=O` ? inactive

Hi team, can someone confirm the assay call for `CCOC(=O)CBr` ? inactive

Hi team, can someone confirm the assay call for `BrCCCCBr` ? inactive

Hi team, can someone confirm the assay call for `ClP(Cl)(Cl)(Cl)Cl` ? inactive

Hi team, can someone confirm the assay call for `CCOP(=O)(OCC)SCCSCC` ? inactive

Hi team, can someone confirm the assay call for `O=Cc1ccc2c(c1)OCO2` ? inactive

Hi team, can someone confirm the assay call for `CO[C@@H]1[C@H](OC(=O)NC(=O)CCl)CC[C@]2(CO2)[C@H]1[C@@]1(C)O[C@@H]1CC=C(C)C` ? inactive

Hi team, can someone confirm the assay call for `Clc1cccc2ccccc12` ? inactive

Hi team, can someone confirm the assay call for COC(=O)C(C)N(C(=O)Cc1ccccc1)c1c(C)cccc1C (centres undefined) ? inactive

====

molecular target: Nuclear receptor subfamily 1 group I member 2 (Homo sapiens); test: Human pregnane X receptor (PXR) activation by small molecules, qHTS assay (AID 1346985); conditions: DPX-2 HepG2 CYP3A4-luciferase, 24 h; series mostly up to 38.3 µM; further: nearly all actives have a fitted effect of over 40% in size
Records with an inconclusive call do not appear. Activity calls are given as the source filed them. Calls follow the shape of the dose curve; as a rule, active = well fitted activation curve with a large enough effect in the repeat runs; inconclusive = weak or mixed curves; inactive = flat fitted curve, though single readings scatter.
property-label: outcome

- compound: "CCCCCCCCCC(=O)O[C@H]1CC[C@H]2[C@@H]3CCC4=CC(=O)CC[C@@H]4[C@H]3CC[C@]12C"
  outcome: "inactive"
- compound: "O=[N+]([O-])c1ccc(F)c([N+](=O)[O-])c1"
  outcome: "inactive"
- compound: "CC(=O)NC1CCSC1=O (stereo unspecified)"
  outcome: "inactive"
- compound: "COCC(C)N(C(=O)CCl)c1c(C)csc1C (stereo unspecified)"
  outcome: "inactive"

Now look at this entry.
Please state recorded outcome (tested on Nuclear receptor subfamily 1 group I member 2 (Homo sapiens)) of `O=C1NCN(c2ccccc2)C12CCN(CCCOc1ccc(F)cc1)CC2` inactive
